experiment_notes: ATG_PXRE_CIS: Attagene CIS-FACTORIAL HepG2 Assay for human Pregnane X Receptor Element (PXRE) (AID 2282957)
test_parameters: HepG2 Attagene CIS-FACTORIAL PXRE reporter, mRNA; actives raise or lower the signal
Active and inactive are the calls of the source. How the source made its calls: active means hit-call score of the fitted dose curve at least 0.9, where 1 is the maximum; inactive means score below 0.9.
Parameter call: string, one of 1 (active), 0 (inactive)

Record lookup: outcome of this test for `CCN(Cc1cccc(S(=O)(=O)O)c1)c1ccc(C(=C2C=CC(=[N+](CC)Cc3cccc(S(=O)(=O)O)c3)C=C2)c2ccc(O)cc2S(=O)(=O)[O-])cc1` ?
0

Record lookup: outcome of this test for `O=S(=O)(OCCOC(F)(F)F)C(F)(F)F` ?
0

Record lookup: outcome of this test for `C=CC(=O)OCC(F)(F)C(F)(F)C(F)(F)C(F)(F)C(F)(F)C(F)(F)C(F)(F)F` ?
0

Record lookup: outcome of this test for `Nc1ccc([N+](=O)[O-])cc1O` ?
0

====

Read-out: Epidermal growth factor receptor (EGFR), EGFR (gene 1956)
experiment_notes: BSK_hDFCGF_EGFR: BioMAP Diversity Plus: hDFCGF Assay for Epidermal growth factor receptor (EGFR) Biomarker Activity (AID 2283057)
test_parameters: primary human foreskin fibroblasts; actives raise or lower the signal
The source made the active and inactive calls. The calls were made as follows: active = hit-call score of the fitted dose curve at least 0.9, where 1 is the maximum; inactive = score below 0.9.
quantity_measured: outcome

- compound_smiles: "O=C(O)C=C(C(F)(F)F)C(F)(F)F"
  experimental_value: "inactive"
- compound_smiles: "C=CC(=O)OCC(F)(F)C(F)(F)C(F)(F)C(F)(F)C(F)(F)C(F)(F)C(F)(F)F"
  experimental_value: "inactive"
- compound_smiles: "O=C(O)C(F)(F)C(F)(F)C(F)(F)C(F)(F)F"
  experimental_value: "inactive"
- compound_smiles: "O=S(=O)(O)C(F)(F)C(F)(F)C(F)(F)C(F)(F)C(F)(F)C(F)(F)C(F)(F)F"
  experimental_value: "inactive"
- compound_smiles: "FC(F)(Br)C(F)(F)C(F)(F)C(F)(F)C(F)(F)C(F)(F)Br"
  experimental_value: "inactive"

Entry `CCCCCCCOC(=O)c1ccccc1C(=O)OCCCCCCC` has what outcome?
inactive

Entry `CCCCNc1ccccc1` has what outcome?
inactive

Entry `O=C(CC(=O)C(F)(F)C(F)(F)F)C(F)(F)F` has what outcome?
inactive

Entry `CCc1ccc(C(c2ccc(CC)cc2)C(Cl)Cl)cc1` has what outcome?
inactive

Entry `O=C(O)C(F)(F)C(F)(F)C(F)(F)C(F)(F)C(F)(F)C(F)(F)C(F)(F)C(F)(F)C(F)(F)C(F)F` has what outcome?
inactive

Entry `O=C(O)C(F)(F)C(F)(F)OC(F)(F)F` has what outcome?
inactive

====

Read-out: Human Leukocyte Antigen - DR isotype (HLADR), HLA-DRA (gene 3122)
experiment_notes: BSK_CASM3C_HLADR: BioMAP Diversity Plus: CASM3C Assay for Human Leukocyte Antigen - DR isotype (HLADR) Biomarker Activity (AID 2283043);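 further: cell-surface HLA-DR protein level quantified by ELISA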
test_parameters: primary human coronary artery smooth muscle cells; actives raise or lower the signal
Activity calls are given as the source filed them. How the source made its calls: active means hit-call score of the fitted dose curve at least 0.9, where 1 is the maximum; inactive means score below 0.9.
Parameter call: string, one of true for active, false for inactive

- compound: "OCC(F)(F)C(F)(F)C(F)(F)C(F)(F)C(F)(F)C(F)(F)F"
  assigned_class: "false"

Record lookup: outcome of this test for `C=CC/C=C/C/C=C/C/C=C/C` ?
false

Record lookup: outcome of this test for `C=CC(=O)OCC(F)(F)C(F)(F)C(F)(F)C(F)(F)C(F)(F)C(F)(F)C(F)(F)F` ?
false

Record lookup: outcome of this test for `CCCCCCCCCCCCCCCC[N+](C)(C)Cc1ccccc1` ?
true

====

tested_on: Estrogen receptor (Homo sapiens) (UniProt P03372)
Sequence (P03372 whole entry, looked up): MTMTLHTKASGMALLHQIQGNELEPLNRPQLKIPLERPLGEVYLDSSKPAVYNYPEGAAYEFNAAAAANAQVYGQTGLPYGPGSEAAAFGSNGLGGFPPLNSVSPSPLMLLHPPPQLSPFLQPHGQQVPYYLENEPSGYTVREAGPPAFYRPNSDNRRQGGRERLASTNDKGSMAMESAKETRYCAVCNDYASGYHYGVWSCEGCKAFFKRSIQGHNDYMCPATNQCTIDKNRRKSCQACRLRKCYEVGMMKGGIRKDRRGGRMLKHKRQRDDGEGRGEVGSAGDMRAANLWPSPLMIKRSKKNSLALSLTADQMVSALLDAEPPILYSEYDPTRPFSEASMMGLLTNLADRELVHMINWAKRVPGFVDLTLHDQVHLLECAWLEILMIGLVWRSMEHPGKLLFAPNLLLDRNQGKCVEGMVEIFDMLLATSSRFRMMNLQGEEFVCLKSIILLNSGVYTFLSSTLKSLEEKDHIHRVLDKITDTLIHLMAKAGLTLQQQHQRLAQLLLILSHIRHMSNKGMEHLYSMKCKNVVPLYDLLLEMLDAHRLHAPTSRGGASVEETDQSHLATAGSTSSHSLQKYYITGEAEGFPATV
experiment_notes: ATG_ERa_TRANS: Attagene TRANS-FACTORIAL HepG2 Assay for human Estrogen Receptor alpha (ERa) (AID 2282970)
test_parameters: HepG2 Attagene TRANS ERa GAL4 reporter, mRNA
Results filed as inconclusive are left out. The source made the active and inactive calls. The calls were made as follows: active = hit-call score of the fitted dose curve at least 0.9, where 1 is the maximum; inconclusive = response in the unintended direction; inactive = score below 0.9.
Parameter call: string, one of y (active), n (inactive)

Completed entries (count: 6):
- compound: "O=S(=O)(O)c1ccc2ccccc2c1"
  tested_on: "Estrogen receptor (Homo sapiens) (UniProt P03372)"
  assigned_class: "n"
- compound: "O=C(O)C=C(C(F)(F)F)C(F)(F)F"
  tested_on: "Estrogen receptor (Homo sapiens) (UniProt P03372)"
  assigned_class: "n"
- compound: "Oc1ccc(Nc2ccccc2)cc1"
  tested_on: "Estrogen receptor (Homo sapiens) (UniProt P03372)"
  assigned_class: "y"
- compound: "FC(F)(F)C(F)(F)C(F)(F)C(F)(F)C(F)(F)C(F)(F)C(F)(F)Br"
  tested_on: "Estrogen receptor (Homo sapiens) (UniProt P03372)"
  assigned_class: "n"
- compound: "Nc1ccc(Oc2cccc(Oc3ccc(N)cc3)c2)cc1"
  tested_on: "Estrogen receptor (Homo sapiens) (UniProt P03372)"
  assigned_class: "y"
- compound: "c1ccc(B(c2ccccc2)c2ccccc2)cc1"
  tested_on: "Estrogen receptor (Homo sapiens) (UniProt P03372)"
  assigned_class: "y"

Record lookup: outcome of this test for `O=C(Cl)C(F)(F)C(F)(F)C(F)(F)C(F)(F)C(F)(F)C(F)(F)C(F)(F)C(F)(F)F` ?
y

Record lookup: outcome of this test for `CCCCCCS` ?
n

Record lookup: outcome of this test for `C=C(C)C(=O)OCC(F)(F)C(F)(F)C(F)(F)C(F)(F)C(F)(F)C(F)(F)C(F)(F)F` ?
y

Record lookup: outcome of this test for `C1COCCN1` ?
n

Record lookup: outcome of this test for `CCN(CC)c1ccc2c(C)cc(=O)oc2c1` ?
y

====

experiment_notes: ACEA_ER_80hr: ACEA Biosciences xCELLigence Real-Time Cell Analysis on Estrogen Receptor Agonism for Proliferation (AID 2282667)
test_parameters: T47D proliferation, impedance (xCELLigence), 80 h
Inconclusive results are not listed. Calls of active or inactive are those of the source. How the source made its calls: active means hit-call score of the fitted dose curve at least 0.9, where 1 is the maximum; inconclusive means response in the unintended direction; inactive means score below 0.9.
Parameter call: string, one of Yes = active, No = inactive

Completed entries (count: 10):
- compound: "CC(C)=CCCC(C)CCOC(=O)C(C)C (stereo unspecified)"
  assigned_class: "No"
- compound: "O=C(O)C(F)(F)C(F)(F)C(F)(F)F"
  assigned_class: "No"
- compound: "FC(F)(F)C(F)(F)C(F)(F)CI"
  assigned_class: "No"
- compound: "O=S(=O)(OCC(F)F)C(F)(F)F"
  assigned_class: "No"
- compound: "CCCCOc1ccc(N)cc1"
  assigned_class: "No"
- compound: "O=C(O)C(F)(F)C(F)(F)C(F)(F)C(F)(F)C(F)(F)C(F)(F)C(F)(F)C(F)(F)C(F)(F)C(F)(F)C(F)(F)C(F)(F)F"
  assigned_class: "No"
- compound: "C=CC(=O)OCC(F)(F)C(F)(F)C(F)(F)C(F)(F)COC(=O)C=C"
  assigned_class: "No"
- compound: "FC(F)(I)C(F)(F)C(F)(F)C(F)(F)I"
  assigned_class: "Yes"
- compound: "FC(F)(F)C(F)(F)C(F)(F)C(F)(F)C(F)(F)C(F)(F)C(F)(F)C(F)(F)F"
  assigned_class: "No"
- compound: "C=C(C)C(=O)OCCC(F)(F)C(F)(F)C(F)(F)C(F)(F)C(F)(C(F)(F)F)C(F)(F)F"
  assigned_class: "No"

Record lookup: outcome of this test for CC(C)(C)c1ccc(OC2CCCCC2O)cc1 (stereo unspecified) ?
No

Record lookup: outcome of this test for `OCCCC(F)(F)C(F)(F)C(F)(F)C(F)(F)C(F)(F)C(F)(F)C(F)(F)F` ?
No

Record lookup: outcome of this test for COC(OC(C)=O)c1ccccc1 (stereo unspecified) ?
No

Record lookup: outcome of this test for `O=C(O)C(F)(F)C(F)(F)OC(F)(F)F` ?
No

Record lookup: outcome of this test for `FC(F)(F)C(F)(F)C(F)(F)C(F)(F)C(F)(F)C(F)(F)CCS` ?
No

Record lookup: outcome of this test for `FC(F)(F)C(F)(F)C(F)(F)C(F)(F)C(F)(F)C(F)(F)C(F)(F)C(F)(F)CCS` ?
No

====

experiment_notes: ATG_TGFb_CIS: Attagene CIS-FACTORIAL HepG2 Assay for human Transforming Growth Factor (TGF) (AID 2282967)
test_parameters: HepG2 Attagene CIS TGFb reporter, mRNA transcription; actives raise or lower the signal
The source made the active and inactive calls. The calls were made as follows: active = hit-call score of the fitted dose curve at least 0.9, where 1 is the maximum; inactive = score below 0.9.
Parameter call: string, one of TRUE = active, FALSE = inactive

Record lookup: outcome of this test for `CC(C)c1ccccc1N` ?
FALSE

Record lookup: outcome of this test for `CCCCCCS` ?
FALSE

====

Read-out: Vascular endothelial growth factor receptor 2 (Homo sapiens)
experiment_notes: BSK_4H_VEGFRII: BioMAP Diversity Plus: 4H Assay for Vascular endothelial growth factor receptor 2 (VEGFR2) Biomarker Activity (AID 2283031)
test_parameters: primary human endothelial cells (HUVEC); actives raise or lower the signal
Calls of active or inactive are those of the source. How the source made its calls: active means hit-call score of the fitted dose curve at least 0.9, where 1 is the maximum; inactive means score below 0.9.
Parameter call: string, one of active, inactive

Completed entries (count: 8):
- molecule: "FC(F)(F)C(F)(F)C(F)(F)C(F)(F)C(F)(F)C(F)(F)CC1CO1 (stereo not given)"
  assigned_class: "inactive"
- molecule: "C=CC(F)(F)C(F)(F)C(F)(F)C(F)(F)C(F)(F)C(F)(F)C(F)(F)C(F)(F)F"
  assigned_class: "inactive"
- molecule: "O=C(O)C(F)(F)C(F)(F)C(F)(F)C(F)(F)C(F)(F)C(F)(F)C(F)(F)C(F)(F)C(F)(F)C(F)F"
  assigned_class: "inactive"
- molecule: "O=P(O)(O)OCCC(F)(F)C(F)(F)C(F)(F)C(F)(F)C(F)(F)C(F)(F)F"
  assigned_class: "inactive"
- molecule: "FC1CC(F)(F)C(F)(F)C1(F)F (stereo not given)"
  assigned_class: "inactive"
- molecule: "OCC(F)(F)C(F)(F)C(F)(F)C(F)(F)C(F)(F)C(F)F"
  assigned_class: "inactive"
- molecule: "O[Si](c1ccccc1)(c1ccccc1)c1ccccc1"
  assigned_class: "active"
- molecule: "O=C(O)C(F)(OC(F)(F)C(F)(OC(F)(F)C(F)(OC(F)(F)C(F)(F)C(F)(F)F)C(F)(F)F)C(F)(F)F)C(F)(F)F (stereo not given)"
  assigned_class: "inactive"

Record lookup: outcome of this test for `C#C[C@]1(O)CC[C@H]2[C@@H]3CCc4cc(OC)ccc4[C@H]3CC[C@@]21C` ?
inactive

Record lookup: outcome of this test for `O=C(O)C=C(C(F)(F)F)C(F)(F)F` ?
inactive
